IC50 listing for selected molecules.
Target: human Edg-2 receptor (LPA1 receptor) (Homo sapiens, UniProt Q92633)
Sequence (Q92633 whole entry): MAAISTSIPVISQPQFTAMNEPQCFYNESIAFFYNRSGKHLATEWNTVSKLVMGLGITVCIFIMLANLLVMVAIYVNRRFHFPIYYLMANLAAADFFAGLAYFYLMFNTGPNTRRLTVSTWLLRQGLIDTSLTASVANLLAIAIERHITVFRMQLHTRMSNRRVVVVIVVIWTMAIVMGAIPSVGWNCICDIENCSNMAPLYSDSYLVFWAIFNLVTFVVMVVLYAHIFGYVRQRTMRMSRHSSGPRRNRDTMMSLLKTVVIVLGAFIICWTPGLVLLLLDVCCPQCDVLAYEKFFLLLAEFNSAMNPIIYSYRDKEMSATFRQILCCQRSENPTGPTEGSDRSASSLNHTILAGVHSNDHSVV
Experiment: Edg-2 receptor inhibition by FLIPR calcium fluorescence measurement (LPA-mediated calcium liberation)
Conditions: CHO cells stably overexpressing human Edg-2 receptor; LPA 18:1 100 nM; fluo-4 fluorescence; triplicate; read-out: Inhibitory concentrations IC50 for inhibition of the Edg-2 receptor

Example cases with answers are listed next.
Value of measured IC50 for the entry COc1ccc(C(=O)NC2(C(=O)O)Cc3cc(C)c(C)cc3C2)cc1OCCc1cccc(C)c1 [Example 158] : 100 to 1000 nM

Value of measured IC50 for the entry COc1cc(Cl)c(C(=O)NC2(C(=O)O)Cc3ccccc3C2)cc1OCCc1cccc(Cl)c1 [Example 105] : 100 to 1000 nM

Further cases:
Value of measured IC50 for the entry CCc1ccc(COc2cc(C(=O)NC3(C(=O)O)Cc4ccccc4C3)ccc2OC)cc1 [Example 41] : 1000 to 30000 nM

Value of measured IC50 for the entry COCCOc1ccc(C(=O)NC2(C(=O)O)Cc3ccccc3C2)cc1OCCc1cccc(C)c1 [Example 256] : < 100 nM

Value of measured IC50 for the entry COc1ccc(C(=O)NC2(C(=O)O)Cc3ccccc3C2)cc1CCCc1cccc(C)c1 [Example 116] : < 100 nM

Value of measured IC50 for the entry COc1ccc(C(=O)NC2(C(=O)O)Cc3ccccc3C2)cc1OCCc1cccc2ccccc12 [Example 44] : 1000 to 30000 nM

Value of measured IC50 for the entry COc1ccc(C(=O)NC2(C(=O)O)Cc3ccccc3C2)cc1OCCc1cccc(C(F)(F)F)c1 [Example 127] : < 100 nM

###

Target: human Edg-2 receptor (LPA1 receptor) (Homo sapiens)
Experiment: Edg-2 receptor inhibition by FLIPR calcium fluorescence measurement (LPA-mediated calcium liberation)
Conditions: CHO cells stably overexpressing human Edg-2 receptor; LPA 18:1 100 nM; fluo-4 fluorescence; triplicate; read-out: Inhibitory concentrations IC50 for inhibition of the Edg-2 receptor
readoutType: IC50

Value of measured IC50 for the entry "COc1ncc(C(=O)NC2(C(=O)O)Cc3ccccc3C2)cc1OCCc1cc(C)ccc1F" : < 100 nM

Value of measured IC50 for the entry "COc1ncc(C(=O)NC2(C(=O)O)Cc3ccccc3C2)cc1-c1cccc(Cl)c1" : < 100 nM

Value of measured IC50 for the entry "COc1ccc(C(=O)NC2(C(=O)O)Cc3ccccc3C2)cc1OCC1(c2cccc(C)c2)CC1" : < 100 nM

Value of measured IC50 for the entry "Cc1cccc(CCOc2cc(C(=O)NC3(C(=O)O)Cc4ccccc4C3)ccc2C#N)c1" : < 100 nM

Value of measured IC50 for the entry "COc1ccc(C(=O)NC2(C(=O)O)Cc3ccccc3C2)cc1OCCc1cccc(SC(F)(F)F)c1" : < 100 nM

Further cases:
Value of measured IC50 for the entry "CCOc1ccc(C(=O)NC2(C(=O)O)Cc3ccccc3C2)cc1OCCc1cccc(C)c1" : < 100 nM

Value of measured IC50 for the entry "COc1ccc(C(=O)NC2(C(=O)O)Cc3ccccc3C2)cc1OCCc1cccc(C(C)(CO)CO)c1" : 100 to 1000 nM

Value of measured IC50 for the entry COc1ccc(C(=O)NC2(C(=O)O)Cc3ccccc3C2)cc1OCC1CCCN(C)C1 (centres unmarked) : 1000 to 30000 nM

Value of measured IC50 for the entry "COc1ccc(C(=O)NC2(C(=O)O)Cc3ccccc3C2)cc1-c1cccc(CN(C)C)c1" : 1000 to 30000 nM

Value of measured IC50 for the entry "COc1ccc(C(=O)NC2(C(=O)O)Cc3ccccc3C2)cc1-c1cccc(Cl)c1" : < 100 nM

Value of measured IC50 for the entry "COc1cc(Br)c(C(=O)NC2(C(=O)O)Cc3ccccc3C2)cc1OCCc1cccc(Cl)c1" : 1000 to 30000 nM

Source: patent US8802720B2
